- ASSAY_METHOD_TEXT: PK of topical ocular sodium phosphate-based Gel Drop, concentrations 1 hour after last dose
- Format: in vivo, Dutch-belted rabbits
- CONDITION_INFO: Dutch-belted, rabbit, retina, 2 mg/ml, pH 6, 2 mg/ml pH 6.0 Phos 0.02% BAK 0.005% Gly 2% PS80 1% Tylox 0.2%, 3x/day 5 days, read-out: Mean [retina]
- Source text: The Gel Drop of Compound-I was applied to eyes of Dutch-belted rabbits.
PROPERTY_LABEL: concentration at 1 h (nM)
Kindly answer with a numeric value in nM, unit omitted.

Note concentration at 1 h for the molecule shown: Cl.NC(=O)c1c(OCc2c(F)cc(Br)cc2F)nsc1NC(=O)NCCCCN1CCCC1 [Compound-I, hydrochloride]
92.9

###

- ASSAY_METHOD_TEXT: PK of topical ocular sodium phosphate-based Gel Drop, concentrations 1 hour after last dose
- Type: in vivo, Dutch-belted rabbits
- CONDITION_INFO: Dutch-belted, rabbit, choroid, 1 mg/ml, pH 6.1, 1 mg/ml pH 6.1 BAK 0.005% Gly 2% Osmo 230, 3x/day 5 days, read-out: MEAN [choroid]
PROPERTY_LABEL: concentration at 1 h (nM)
Number only, in nM; omit the unit.

Look up and report measured concentration at 1 h for this entry: Cl.NC(=O)c1c(OCc2c(F)cc(Br)cc2F)nsc1NC(=O)NCCCCN1CCCC1 [Compound-I, hydrochloride]
537

###

- ASSAY_METHOD_TEXT: PK of topical ocular sodium phosphate-based Gel Drop, concentrations 1 hour after last dose
- Assay type: in vivo, Dutch-belted rabbits
- CONDITION_INFO: Dutch-belted, rabbit, aqueous humor (AH), 2 mg/ml, pH 6, 2 mg/ml pH 6 Phos 0.2% BAK 0.005% Gly 2% PS80 1% Osmo 281, 3x/day 5 days, read-out: Mean [AH]
PROPERTY_LABEL: concentration at 1 h (nM)
Unit nM implied. Number only.

Specify reported concentration at 1 h for the molecule shown: Cl.NC(=O)c1c(OCc2c(F)cc(Br)cc2F)nsc1NC(=O)NCCCCN1CCCC1 [Compound-I, hydrochloride]
19.7

###

- ASSAY_METHOD_TEXT: PK of topical ocular sodium phosphate-based Gel Drop, concentrations 1 hour after last dose
- Type: in vivo, Dutch-belted rabbits
- CONDITION_INFO: Dutch-belted, rabbit, plasma, 2 mg/ml, pH 6, 2 mg/ml pH 6.0 Phos 0.2% BAK 0.005% Gly 2%, 3x/day 5 days, read-out: [plasma]
PROPERTY_LABEL: concentration at 1 h
Don't forget the unit after the value.

Give the reported value of concentration at 1 h for this record: Cl.NC(=O)c1c(OCc2c(F)cc(Br)cc2F)nsc1NC(=O)NCCCCN1CCCC1 [Compound-I, hydrochloride]
4.47 nM

###

- ASSAY_METHOD_TEXT: PK of topical ocular sodium phosphate-based Gel Drop, concentrations 1 hour after last dose
- Assay type: in vivo, Dutch-belted rabbits
- CONDITION_INFO: Dutch-belted, rabbit, retina, 1 mg/ml, pH 6, 1 mg/ml pH 6.0 Phos 0.05% BAK 0.005% Gly 2% PS80 0.01% Tylox 0.2%, 3x/day 5 days, read-out: Mean [retina]
PROPERTY_LABEL: concentration at 1 h (nM)
# number only, unit nM dropped from output

Note down concentration at 1 h recorded for Cl.NC(=O)c1c(OCc2c(F)cc(Br)cc2F)nsc1NC(=O)NCCCCN1CCCC1 [Compound-I, hydrochloride]
46.8

Values compiled from patent US10307404B1.
